method: Quantitative highthroughput screen to assess conditional lethalithy of NOMO1 cells grown in RPMI1640 with dialyzed fetal bovine serum (RPMI+ds) (AID 1963877); further: nearly all actives have a fitted effect of over 30% in size; further: potency means the concentration at half of the fitted maximal effect
condition.context: NOMO1 in RPMI+dialyzed FBS viability, ATP luminescence, 48 h; series mostly up to 45.8 µM
Records with an inconclusive call do not appear. Active and inactive are the calls of the source. The call rests on the fitted dose curve; in most records, active means well fitted cell-killing curve with a large enough effect; inconclusive means small, poorly fitted or top-dose-only effect; inactive means flat fitted curve, though single readings scatter.
quantity: Potency

| smiles.code | quantity | result |
| --- | --- | --- |
| O=C(NC1CCNCC1)c1[nH]ncc1NC(=O)c1c(Cl)cccc1Cl | Potency | 1.18 µM (active) |
| CCNC(=O)c1cc2c(-c3cc(OCCN4CCCC4)c(Cl)cc3Cl)nc(N)nc2s1 | Potency | 4.69 µM (active) |
| CC(C)c1ccccc1Cc1cc(C(=O)Nc2ccc(S(=O)(=O)c3ccccc3C(C)(C)C)cc2)c(O)c(O)c1O | Potency | inactive |
| CC(=O)Nc1cccc(-n2c(=O)n(C3CC3)c(=O)c3c(Nc4ccc(I)cc4F)n(C)c(=O)c(C)c32)c1 | Potency | 0.209 µM (active) |
| Cc1nc2ccc(C(=O)N3CCC4(CC3)CC(=O)c3c(cnn3C(C)C)C4)cc2[nH]1 | Potency | inactive |

Q: Query (compound): CC(C)(N)C(=O)N[C@H](COCc1ccccc1)C(=O)N1CCC2(CC1)CN(S(C)(=O)=O)c1ccccc12 ; field requested: Potency
Ans: 10.5 µM (active)
